assay: Half-lives and pharmacokinetic parameters of polypeptides vs HM-1; settings: in vivo, T1/2β (half-life)
Peptide text beside a SMILES is read from it. * marks the point of attachment. X10 = O=C1C=CC(=O)N1CCOCCOCCOCCOCCCC(=O)*; X28 = O=C1C=CC(=O)N1CCOCCOCCOCCCCCCC(=O)*; X34 = O=C1C=CC(=O)N1CCOCCOCCOCCCCCC(=O)*
Catalogue of half-life values
The reply should be a number in h, with the unit left off.

Previously resolved entries follow.
>  <compound>
C[C@H](NC(=O)CNC(=O)[C@H](CCCNC(=N)N)NC(=O)CCCCCOCCOCCOCCN1C(=O)C=CC1=O)C(=O)N[C@@H](CC(=O)O)C(=O)N[C@@H](CCCNC(=N)N)C(=O)N[C@@H](C)C(=O)NCC(=O)NCC(=O)NCC(=O)NCC(=O)N[C@@H](CCCNC(=N)N)C(=O)NCC(=O)N[C@@H](CC(=O)O)C(=O)O [X67] (X34-RGADRAGGGGRGD-OH)

>  <result.unit>
h

>  <half-life>
39.1

$$$$
>  <compound>
C[C@H](NC(=O)CNC(=O)[C@H](CCCNC(=N)N)NC(=O)CCCOCCOCCOCCOCCN1C(=O)C=CC1=O)C(=O)N[C@@H](CC(=O)O)C(=O)N[C@@H](CCCNC(=N)N)C(=O)N[C@@H](C)C(=O)NCC(=O)NCC(=O)NCC(=O)NCC(=O)N[C@@H](CCCNC(=N)N)C(=O)NCC(=O)N[C@@H](CC(=O)O)C(=O)O [X72] (X10-RGADRAGGGGRGD-OH)

>  <result.unit>
h

>  <half-life>
41.9

$$$$

For the next question, use this compound.
// recorded half-life for C[C@H](NC(=O)CNC(=O)[C@H](CCCNC(=N)N)NC(=O)CCCCCCOCCOCCOCCN1C(=O)C=CC1=O)C(=O)N[C@@H](CC(=O)O)C(=O)N[C@@H](CCCNC(=N)N)C(=O)N[C@@H](C)C(=O)NCC(=O)NCC(=O)NCC(=O)NCC(=O)N[C@@H](CCCNC(=N)N)C(=O)NCC(=O)N[C@@H](CC(=O)O)C(=O)O [X68] (X28-RGADRAGGGGRGD-OH) : 39.5

====

Catalogue of AUC(0-inf) values
test: Half-lives and pharmacokinetic parameters of polypeptides vs HM-1; conditions: in vivo
Peptide text beside a SMILES is read from it. * marks the point of attachment. X41 = O=C1C=CC(=O)N1c1ccc(CCCCCCCCCCCCC(=O)*)cc1; X4 = O=C1C=CC(=O)N1CCOCCOCCOCCOCCCCCCCC(=O)*; X24 = O=C1C=CC(=O)N1CCOCCOCCOCCOCCOCCC(=O)*; X25 = O=C1C=CC(=O)N1CCOCCOCCOCCOCCCCC(=O)*; X55 = O=C1C=CC(=O)N1c1ccccc1CCCCCCCCC(=O)*; X2 = O=C1C=CC(=O)N1CCOCCOCCCCCC(=O)*
The reply should be a number in ng·h/mL, with the unit left off.

>  <molecule>
C[C@H](NC(=O)CNC(=O)[C@H](CCCNC(=N)N)NC(=O)CCOCCOCCOCCOCCOCCN1C(=O)C=CC1=O)C(=O)N[C@@H](CC(=O)O)C(=O)N[C@@H](CCCNC(=N)N)C(=O)N[C@@H](C)C(=O)NCC(=O)NCC(=O)NCC(=O)NCC(=O)N[C@@H](CCCNC(=N)N)C(=O)NCC(=O)N[C@@H](CC(=O)O)C(=O)O [X78] (X24-RGADRAGGGGRGD-OH)

>  <AUC(0-inf), ng·h/mL>
29800

$$$$
>  <molecule>
C[C@H](NC(=O)CNC(=O)[C@H](CCCNC(=N)N)NC(=O)CCCCCCCCCCCCc1ccc(N2C(=O)C=CC2=O)cc1)C(=O)N[C@@H](CC(=O)O)C(=O)N[C@@H](CCCNC(=N)N)C(=O)N[C@@H](C)C(=O)NCC(=O)NCC(=O)NCC(=O)NCC(=O)N[C@@H](CCCNC(=N)N)C(=O)NCC(=O)N[C@@H](CC(=O)O)C(=O)O [X48] (X41-RGADRAGGGGRGD-OH)

>  <AUC(0-inf), ng·h/mL>
29200

$$$$
>  <molecule>
C[C@H](NC(=O)CNC(=O)[C@H](CCCNC(=N)N)NC(=O)CCCCCOCCOCCN1C(=O)C=CC1=O)C(=O)N[C@@H](CC(=O)O)C(=O)N[C@@H](CCCNC(=N)N)C(=O)N[C@@H](C)C(=O)NCC(=O)NCC(=O)NCC(=O)NCC(=O)N[C@@H](CCCNC(=N)N)C(=O)NCC(=O)N[C@@H](CC(=O)O)C(=O)O [X60] (X2-RGADRAGGGGRGD-OH)

>  <AUC(0-inf), ng·h/mL>
30200

$$$$
>  <molecule>
C[C@H](NC(=O)CNC(=O)[C@H](CCCNC(=N)N)NC(=O)CCCCCCCCc1ccccc1N1C(=O)C=CC1=O)C(=O)N[C@@H](CC(=O)O)C(=O)N[C@@H](CCCNC(=N)N)C(=O)N[C@@H](C)C(=O)NCC(=O)NCC(=O)NCC(=O)NCC(=O)N[C@@H](CCCNC(=N)N)C(=O)NCC(=O)N[C@@H](CC(=O)O)C(=O)O [X20] (X55-RGADRAGGGGRGD-OH)

>  <AUC(0-inf), ng·h/mL>
31800

$$$$
>  <molecule>
C[C@H](NC(=O)CNC(=O)[C@H](CCCNC(=N)N)NC(=O)CCCCOCCOCCOCCOCCN1C(=O)C=CC1=O)C(=O)N[C@@H](CC(=O)O)C(=O)N[C@@H](CCCNC(=N)N)C(=O)N[C@@H](C)C(=O)NCC(=O)NCC(=O)NCC(=O)NCC(=O)N[C@@H](CCCNC(=N)N)C(=O)NCC(=O)N[C@@H](CC(=O)O)C(=O)O [X73] (X25-RGADRAGGGGRGD-OH)

>  <AUC(0-inf), ng·h/mL>
26700

$$$$

For the next question, use this molecule.
// recorded AUC(0-inf) for C[C@H](NC(=O)CNC(=O)[C@H](CCCNC(=N)N)NC(=O)CCCCCCCOCCOCCOCCOCCN1C(=O)C=CC1=O)C(=O)N[C@@H](CC(=O)O)C(=O)N[C@@H](CCCNC(=N)N)C(=O)N[C@@H](C)C(=O)NCC(=O)NCC(=O)NCC(=O)NCC(=O)N[C@@H](CCCNC(=N)N)C(=O)NCC(=O)N[C@@H](CC(=O)O)C(=O)O [X76] (X4-RGADRAGGGGRGD-OH) : 33900

====

Catalogue of clearance values
assay: Half-lives and pharmacokinetic parameters of polypeptides vs HM-1; details: in vivo
Peptide text beside a SMILES is read from it. * marks the point of attachment. X23 = O=C1C=CC(=O)N1CCOCCOCCOCCOCCOCCOCCCCC(=O)*; X58 = O=C1C=CC(=O)N1c1cccc(CCCCCCCCCCCC(=O)*)c1; X84 = O=C1C=CC(=O)N1c1ccccc1CCCCCCCCCCCCC(=O)*; X73 = O=C1C=CC(=O)N1c1ccc(CCCCCCCCCC(=O)*)cc1; X5 = O=C1C=CC(=O)N1CCOCCOCCOCCOCCOCCOCC(=O)*; X59 = O=C1C=CC(=O)N1c1cccc(CCCCCCCCC(=O)*)c1; X72 = O=C1C=CC(=O)N1c1ccccc1CCCCCCCCCCC(=O)*; X60 = O=C1C=CC(=O)N1c1ccccc1CCCCCCCCCC(=O)*; X28 = O=C1C=CC(=O)N1CCOCCOCCOCCCCCCC(=O)*; X71 = O=C1C=CC(=O)N1c1cccc(CCCCCC(=O)*)c1; X31 = O=C1C=CC(=O)N1CCOCCOCCOCC(=O)*
The reply should be a number in mL/min/kg, with the unit left off.

>  <compound>
C[C@H](NC(=O)CNC(=O)[C@H](CCCNC(=N)N)NC(=O)COCCOCCOCCOCCOCCOCCN1C(=O)C=CC1=O)C(=O)N[C@@H](CC(=O)O)C(=O)N[C@@H](CCCNC(=N)N)C(=O)N[C@@H](C)C(=O)NCC(=O)NCC(=O)NCC(=O)NCC(=O)N[C@@H](CCCNC(=N)N)C(=O)NCC(=O)N[C@@H](CC(=O)O)C(=O)O [X84] (X5-RGADRAGGGGRGD-OH)

>  <clearance (mL/min/kg)>
0.573

$$$$
>  <compound>
C[C@H](NC(=O)CNC(=O)[C@H](CCCNC(=N)N)NC(=O)CCCCCCOCCOCCOCCN1C(=O)C=CC1=O)C(=O)N[C@@H](CC(=O)O)C(=O)N[C@@H](CCCNC(=N)N)C(=O)N[C@@H](C)C(=O)NCC(=O)NCC(=O)NCC(=O)NCC(=O)N[C@@H](CCCNC(=N)N)C(=O)NCC(=O)N[C@@H](CC(=O)O)C(=O)O [X68] (X28-RGADRAGGGGRGD-OH)

>  <clearance (mL/min/kg)>
0.523

$$$$
>  <compound>
C[C@H](NC(=O)CNC(=O)[C@H](CCCNC(=N)N)NC(=O)CCCCCCCCCc1ccccc1N1C(=O)C=CC1=O)C(=O)N[C@@H](CC(=O)O)C(=O)N[C@@H](CCCNC(=N)N)C(=O)N[C@@H](C)C(=O)NCC(=O)NCC(=O)NCC(=O)NCC(=O)N[C@@H](CCCNC(=N)N)C(=O)NCC(=O)N[C@@H](CC(=O)O)C(=O)O [X21] (X60-RGADRAGGGGRGD-OH)

>  <clearance (mL/min/kg)>
0.49

$$$$
>  <compound>
C[C@H](NC(=O)CNC(=O)[C@H](CCCNC(=N)N)NC(=O)COCCOCCOCCN1C(=O)C=CC1=O)C(=O)N[C@@H](CC(=O)O)C(=O)N[C@@H](CCCNC(=N)N)C(=O)N[C@@H](C)C(=O)NCC(=O)NCC(=O)NCC(=O)NCC(=O)N[C@@H](CCCNC(=N)N)C(=O)NCC(=O)N[C@@H](CC(=O)O)C(=O)O [X63] (X31-RGADRAGGGGRGD-OH)

>  <clearance (mL/min/kg)>
0.517

$$$$
>  <compound>
C[C@H](NC(=O)CNC(=O)[C@H](CCCNC(=N)N)NC(=O)CCCCCCCCCc1ccc(N2C(=O)C=CC2=O)cc1)C(=O)N[C@@H](CC(=O)O)C(=O)N[C@@H](CCCNC(=N)N)C(=O)N[C@@H](C)C(=O)NCC(=O)NCC(=O)NCC(=O)NCC(=O)N[C@@H](CCCNC(=N)N)C(=O)NCC(=O)N[C@@H](CC(=O)O)C(=O)O [X45] (X73-RGADRAGGGGRGD-OH)

>  <clearance (mL/min/kg)>
0.685

$$$$

// recorded clearance for C[C@H](NC(=O)CNC(=O)[C@H](CCCNC(=N)N)NC(=O)CCCCCCCCCCCCc1ccccc1N1C(=O)C=CC1=O)C(=O)N[C@@H](CC(=O)O)C(=O)N[C@@H](CCCNC(=N)N)C(=O)N[C@@H](C)C(=O)NCC(=O)NCC(=O)NCC(=O)NCC(=O)N[C@@H](CCCNC(=N)N)C(=O)NCC(=O)N[C@@H](CC(=O)O)C(=O)O [X24] (X84-RGADRAGGGGRGD-OH) : 0.562

// recorded clearance for C[C@H](NC(=O)CNC(=O)[C@H](CCCNC(=N)N)NC(=O)CCCCCc1cccc(N2C(=O)C=CC2=O)c1)C(=O)N[C@@H](CC(=O)O)C(=O)N[C@@H](CCCNC(=N)N)C(=O)N[C@@H](C)C(=O)NCC(=O)NCC(=O)NCC(=O)NCC(=O)N[C@@H](CCCNC(=N)N)C(=O)NCC(=O)N[C@@H](CC(=O)O)C(=O)O [X29] (X71-RGADRAGGGGRGD-OH) : 0.518

// recorded clearance for C[C@H](NC(=O)CNC(=O)[C@H](CCCNC(=N)N)NC(=O)CCCCCCCCc1cccc(N2C(=O)C=CC2=O)c1)C(=O)N[C@@H](CC(=O)O)C(=O)N[C@@H](CCCNC(=N)N)C(=O)N[C@@H](C)C(=O)NCC(=O)NCC(=O)NCC(=O)NCC(=O)N[C@@H](CCCNC(=N)N)C(=O)NCC(=O)N[C@@H](CC(=O)O)C(=O)O [X32] (X59-RGADRAGGGGRGD-OH) : 0.54

// recorded clearance for C[C@H](NC(=O)CNC(=O)[C@H](CCCNC(=N)N)NC(=O)CCCCCCCCCCCc1cccc(N2C(=O)C=CC2=O)c1)C(=O)N[C@@H](CC(=O)O)C(=O)N[C@@H](CCCNC(=N)N)C(=O)N[C@@H](C)C(=O)NCC(=O)NCC(=O)NCC(=O)NCC(=O)N[C@@H](CCCNC(=N)N)C(=O)NCC(=O)N[C@@H](CC(=O)O)C(=O)O [X35] (X58-RGADRAGGGGRGD-OH) : 0.522

// recorded clearance for C[C@H](NC(=O)CNC(=O)[C@H](CCCNC(=N)N)NC(=O)CCCCOCCOCCOCCOCCOCCOCCN1C(=O)C=CC1=O)C(=O)N[C@@H](CC(=O)O)C(=O)N[C@@H](CCCNC(=N)N)C(=O)N[C@@H](C)C(=O)NCC(=O)NCC(=O)NCC(=O)NCC(=O)N[C@@H](CCCNC(=N)N)C(=O)NCC(=O)N[C@@H](CC(=O)O)C(=O)O [X87] (X23-RGADRAGGGGRGD-OH) : 0.498

// recorded clearance for C[C@H](NC(=O)CNC(=O)[C@H](CCCNC(=N)N)NC(=O)CCCCCCCCCCc1ccccc1N1C(=O)C=CC1=O)C(=O)N[C@@H](CC(=O)O)C(=O)N[C@@H](CCCNC(=N)N)C(=O)N[C@@H](C)C(=O)NCC(=O)NCC(=O)NCC(=O)NCC(=O)N[C@@H](CCCNC(=N)N)C(=O)NCC(=O)N[C@@H](CC(=O)O)C(=O)O [X22] (X72-RGADRAGGGGRGD-OH) : 0.59
